molecular target: GDP-bound KRAS wild-type protein (Homo sapiens); test: Binding to KRAS by surface plasmon resonance (SPR), dissociation constant KD; conditions: 1:1 binding model
Sequence (P01116 1-188 isoform P01116-2): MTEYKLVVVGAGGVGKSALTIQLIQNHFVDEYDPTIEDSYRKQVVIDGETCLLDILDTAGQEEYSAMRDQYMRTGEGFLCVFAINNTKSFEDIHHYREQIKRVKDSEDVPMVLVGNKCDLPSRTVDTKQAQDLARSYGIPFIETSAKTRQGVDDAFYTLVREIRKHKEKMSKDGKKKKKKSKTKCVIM
RESULT_TYPE: Kd (nM)
// return numeric value only (unit: nM, not printed)

CCCOC[C@H]1C(=O)N[C@@H]([C@@H](C)CC)C(=O)N(C)CC(=O)N(C)[C@H]2C/C=C\CCN(C2=O)[C@@H](CC2CCCCC2)C(=O)N(C)CC(=O)N[C@@H](CCc2cc(F)c(C(F)(F)F)c(F)c2)C(=O)N2C[C@H](OCC)C[C@H]2C(=O)NC2(CC(C)(C)C2)C(=O)N(C)[C@@H](C(CC)CC)C(=O)N(C)[C@H](C(=O)N(C)C)CC(=O)N1C    1.8

Q: For the molecule CCO[C@@H]1C[C@H]2C(=O)NC3(CC(C)(C)C3)C(=O)N(C)[C@@H](C3CCCC3)C(=O)N(C)[C@H](C(=O)N(C)C)CC(=O)N(C)[C@H]3CCCCC/C=C/c4ccc(cc4)C[C@@H](C(=O)N(C)CC(=O)N[C@@H](CCc4ccc(Cl)c(Cl)c4)C(=O)N2C1)N1CC/C=C\C[C@@H](C1=O)N(C)C(=O)CN(C)C(=O)[C@H]([C@@H](C)CC)NC3=O , what Kd is on record?
Ans: 0.17

* * *

tested on: human lung cancer strain NCI-H441; format: cell-based
Where a SMILES comes first, the peptide text is derived from it. Bridges are numbered along the chain shown (N, C = ends). [ ]: non-standard residue; d: D form. The star is where a group is joined. NEtPhe(4-CF3) = CCN[C@@H](Cc1ccc(C(F)(F)F)cc1)C(=O)O; hPhe(3,4-Cl2) = N[C@@H](CCc1ccc(Cl)c(Cl)c1)C(=O)O; NMeGly(cPent) = CN[C@H](C(=O)O)C1CCCC1; NMeD = CN[C@@H](CC(=O)O)C(=O)O; NMeL = CN[C@@H](CC(C)C)C(=O)O; Morpholide = C1CN(*)CCO1; Ac5c = NC1(C(=O)O)CCCC1; Sar = CNCC(=O)O
Attribute: pIC50
// pIC50 here means minus log10 of the molar concentration (mol/L)

Q: # lookup: pIC50 of CCO[C@@H]1C[C@H]2C(=O)NC3(CCC3)C(=O)N(C)[C@@H](C3CCCC3)C(=O)N(C)[C@H](C(=O)N(C)C)CC(=O)N(C)[C@@H](CC3CCC3)C(=O)N[C@@H]([C@@H](C)CC)C(=O)N(C)CC(=O)N(C)[C@H]3CCCCN(C3=O)[C@@H](Cc3ccc(C(F)(F)F)cc3)C(=O)N(C)CC(=O)N[C@@H](CCc3cc(F)c(C(F)(F)F)c(F)c3)C(=O)N2C1
Ans: 8.39

Q: Now try CCC[C@H]1C(=O)N[C@@H]([C@@H](C)CC)C(=O)N(C)CC(=O)N(C)[C@H]2C/C=C\CCN(C2=O)[C@@H](Cc2ccc(C(F)(F)F)cc2)C(=O)N(C)CC(=O)N[C@@H](CCc2ccc(C(F)(F)F)c(Cl)c2)C(=O)N2CCCCC[C@H]2C(=O)NC2(CC(C)(C)C2)C(=O)N(C)[C@@H](C(CC)CC)C(=O)N(C)[C@H](C(=O)N(C)C)CC(=O)N1C .
Ans: 7.30

Q: Please do the same for CC[C@H](C)[C@@H]1NC(=O)[C@H](CC(C)C)N(C)C(=O)C[C@@H](C(=O)N2CCOCC2)N(C)C(=O)[C@H](C2CCCC2)N(C)C(=O)C2(CCCC2)NC(=O)[C@@H]2CCCN2C(=O)[C@H](CCc2ccc(Cl)c(Cl)c2)NC(=O)CN(C)C(=O)[C@H](Cc2ccc(C(F)(F)F)cc2)N(CC)C(=O)CN(C)C(=O)CN(C)C1=O [PP0237] ([NMeL]I[Sar][Sar][NEtPhe(4-CF3)][Sar][hPhe(3,4-Cl2)]P[Ac5c][NMeGly(cPent)][NMeD]-Morpholide; lactam N-11) as well.
Ans: 8.40

Q: Now the same for CCC[C@H]1C(=O)N[C@@H]([C@@H](C)CC)C(=O)N(C2CC2)CC(=O)N(C)[C@H]2C/C=C\CCN(C2=O)[C@@H](Cc2ccc(C)cc2)C(=O)N(C)CC(=O)N[C@@H](CCc2cc(C)c(C(F)F)c(C)c2)C(=O)N2C[C@H](OCC)C[C@H]2C(=O)NC2(CC(C)(C)C2)C(=O)N(C)[C@@H](C2CCCC2)C(=O)N(C)[C@H](C(=O)N(C)C)CC(=O)N1C
Ans: 6.89

* * *

The reader will find reported IC50 values listed item by item below.
system: human lung cancer strain NCI-H441; test: NCI-H441 cell proliferation inhibitory activity (CellTiter-Glo, 4 days); type: cell-based; details: NCI-H441 cells, 4 days, read-out: NCl-H441 IC50
# output: number + unit

CCC[C@H]1C(=O)N[C@@H]([C@@H](C)CC)C(=O)N(C2CC2)CC(=O)N(C)[C@H]2C/C=C\CCN(C2=O)[C@@H](Cc2ccc(C(F)(F)F)cc2)C(=O)N(C)CC(=O)N[C@@H](CCc2ccc(C(F)(F)F)c(Cl)c2)C(=O)N2CC[C@H](OC)[C@H]2C(=O)N(C)C2(CCC2)C(=O)N(C)[C@@H](C2CCCC2)C(=O)N(C)[C@H](C(=O)N(C)C)CC(=O)N1C [PP3288]    6.9 nM
CCO[C@@H]1C[C@H]2C(=O)NC3(CC(C)(C)C3)C(=O)N(C)[C@@H](C3CCCC3)C(=O)N(C)[C@H](C(=O)N(C)CC)CC(=O)N(C)[C@@H](COC)C(=O)N[C@@H]([C@@H](C)CC)C(=O)N(C)CC(=O)N(C)[C@H]3C/C=C\CCN(C3=O)[C@@H](Cc3ccc(C)cc3)C(=O)N(C)CC(=O)N[C@@H](CCc3ccc(C(F)(F)F)c(Cl)c3)C(=O)N2C1 [PP2507]    8.9 nM

Now for the compound whose IC50 we want.
Q: Requested read-out: IC50. Entry: CCC[C@H]1C(=O)N[C@@H]([C@@H](C)CC)C(=O)N2CC[C@H]2C(=O)N(C)[C@H]2C/C(F)=C\CCN(C2=O)[C@@H](Cc2ccc(C(F)(F)F)cc2)C(=O)N(C)CC(=O)N[C@@H](CCc2ccc(C(F)(F)F)c(OC)c2)C(=O)N2C[C@H](OCC)C[C@H]2C(=O)N(C)C2(CCC2)C(=O)N(C)[C@@H](C2CCCC2)C(=O)N(C)[C@H](C(=O)N(C)C)CC(=O)N1C [PP3529]
Ans: 7.1 nM

* * *

Items are presented alongside their recorded pKd.
target: GDP-bound KRAS wild-type protein (Homo sapiens); assay: Binding to KRAS by surface plasmon resonance (SPR), dissociation constant KD; conditions: 1:1 binding model
Where a SMILES comes first, the peptide text is derived from it. Bridges are numbered along the chain shown (N, C = ends). [ ]: non-standard residue; d: D form. The star is where a group is joined. hPhe(3-Cl-4-CF3) = N[C@@H](CCc1ccc(C(F)(F)F)c(Cl)c1)C(=O)O; NPrPhe(4-CF3) = CCCN[C@@H](Cc1ccc(C(F)(F)F)cc1)C(=O)O; NMeGly(cPent) = CN[C@H](C(=O)O)C1CCCC1; NMeD = CN[C@@H](CC(=O)O)C(=O)O; NMeL = CN[C@@H](CC(C)C)C(=O)O; Pip = O=C(O)[C@@H]1CCCCN1; Morpholide = C1CN(*)CCO1; Ac5c = NC1(C(=O)O)CCCC1; NEtG = CCNCC(=O)O; Sar = CNCC(=O)O
In textbook form, pKd equals minus log to base ten of the concentration in mol/L.

// solved cases for pKd follow
CCO[C@@H]1C[C@H]2C(=O)NC3(CC(C)(C)C3)C(=O)N(C)[C@@H](C3CCCC3)C(=O)N(C)[C@H](C(=O)N(C)C)CC(=O)N(C)[C@@H]([C@H](C)OC)C(=O)N[C@@H]([C@@H](C)CC)C(=O)N(C)CC(=O)N(C)[C@H]3C/C=C\CCN(C3=O)[C@@H](Cc3ccc(C)cc3)C(=O)N(C)CC(=O)N[C@@H](CCc3ccc(C(F)(F)F)c(Cl)c3)C(=O)N2C1 [PP3189]    9.92
CCOC[C@H]1C(=O)N[C@@H]([C@@H](C)CC)C(=O)N(C2CC2)CC(=O)N(C)[C@@H]2C/C=C\CCN(C2=O)[C@@H](Cc2ccc(C)cc2)C(=O)N(C)CC(=O)N[C@@H](CCc2ccc(C(F)(F)F)c(OC)c2)C(=O)N2C[C@H](OCC)C[C@@H]2C(=O)NC2(CC(C)(C)C2)C(=O)N(C)[C@H](CC2CCC2)C(=O)N(C)[C@H](C(=O)N(C)C)CC(=O)N1C [PP2760]    8.32

Now consider a different compound.
Q: Item: CCCN1C(=O)CN(C)C(=O)CN(CC)C(=O)[C@H]([C@@H](C)CC)NC(=O)[C@H](CC(C)C)N(C)C(=O)C[C@@H](C(=O)N2CCOCC2)N(C)C(=O)[C@H](C2CCCC2)N(C)C(=O)C2(CCCC2)NC(=O)[C@@H]2CCCCN2C(=O)[C@H](CCc2ccc(C(F)(F)F)c(Cl)c2)NC(=O)CN(C)C(=O)[C@@H]1Cc1ccc(C(F)(F)F)cc1 [PP0297] ([NMeL]I[NEtG][Sar][NPrPhe(4-CF3)][Sar][hPhe(3-Cl-4-CF3)][Pip][Ac5c][NMeGly(cPent)][NMeD]-Morpholide; lactam N-11) Test system: GDP-bound KRAS wild-type protein (Homo sapiens) Read-out: pKd Value: ?
Ans: 8.64
